Assay: self-splicing fitness, log relative to wild type (ln ratio); higher = more splicing; Tetrahymena group I intron in knt gene, E. coli kanamycin selection, DiMSum; sequences stand for … in CUCUCU…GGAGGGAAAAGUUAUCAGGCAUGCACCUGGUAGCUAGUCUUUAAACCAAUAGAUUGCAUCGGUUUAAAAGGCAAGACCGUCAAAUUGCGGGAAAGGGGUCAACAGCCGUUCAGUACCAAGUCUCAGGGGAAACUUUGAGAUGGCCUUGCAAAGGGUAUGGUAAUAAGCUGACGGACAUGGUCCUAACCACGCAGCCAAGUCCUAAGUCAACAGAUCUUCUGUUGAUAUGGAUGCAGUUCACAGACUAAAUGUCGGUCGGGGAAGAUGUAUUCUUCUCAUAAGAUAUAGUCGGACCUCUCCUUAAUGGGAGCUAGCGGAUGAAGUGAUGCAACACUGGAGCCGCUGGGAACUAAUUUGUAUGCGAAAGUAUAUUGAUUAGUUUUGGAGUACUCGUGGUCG;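 also: selection with 25 µg/mL kanamycin versus none on LB agar overnight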
Settings: 37 °C
self-splicing fitness (ln) reference
A bare number is all that is needed in reply.

In [3]: df
Out[3]:
          item_sequence           observed_property  data_value
0  ACACAGCAAUAUUACGCGCU  self-splicing fitness (ln)      -0.491

(Q) I have this sequence here, `GUCUAGCAAUAUUACGAACG` , and I need its recorded self-splicing fitness (ln).
(A) -1.13

(Q) Also check `UUAAAGCAAUAUUACGGCAC`
(A) -0.195

Sourced from the supplement of paper PMC7877785
